# target: Solute carrier family 22 member 12 (Homo sapiens, UniProt Q96S37)
# Sequence (Q96S37 whole entry): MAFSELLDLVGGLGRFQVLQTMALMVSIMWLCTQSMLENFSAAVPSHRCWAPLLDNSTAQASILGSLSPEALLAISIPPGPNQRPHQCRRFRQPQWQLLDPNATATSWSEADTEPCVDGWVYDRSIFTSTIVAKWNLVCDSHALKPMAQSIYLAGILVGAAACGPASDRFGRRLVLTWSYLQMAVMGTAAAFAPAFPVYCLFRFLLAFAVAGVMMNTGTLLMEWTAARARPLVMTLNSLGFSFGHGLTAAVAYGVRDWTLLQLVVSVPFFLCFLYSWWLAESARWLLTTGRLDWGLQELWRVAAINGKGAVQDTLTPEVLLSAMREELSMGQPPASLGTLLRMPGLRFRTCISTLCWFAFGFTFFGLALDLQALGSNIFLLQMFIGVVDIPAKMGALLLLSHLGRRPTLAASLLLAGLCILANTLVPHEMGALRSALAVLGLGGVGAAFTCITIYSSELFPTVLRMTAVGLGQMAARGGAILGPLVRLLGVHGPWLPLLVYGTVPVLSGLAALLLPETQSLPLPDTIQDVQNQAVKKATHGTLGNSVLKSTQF
# experiment_notes: Inhibition of URAT1 in human RPTEC assessed as inhibition of [14C]uric acid uptake at 10 uM preincubated for 15 mins followed by [14C]uric acid addition and incubated under shaking condition for 2 hrs by scintillation counter method
# Format: tissue-based
observation_type: inhibition at 10 µM (%)

Take a look at these entries with their results.
>>> experimental_value("CCc1oc2ccccc2c1C(=O)c1cc(Br)c(O)c(Br)c1")
51
>>> experimental_value("CC(C)(C)c1cc(C(=O)N2CCc3ccccc32)cc(C#N)c1O")
32.4
>>> experimental_value("N#Cc1cc(C(=O)N2CS(=O)(=O)c3ccccc32)cc(C2CC2)c1O")
42

(A) N#Cc1cc(C(=O)N2CS(=O)(=O)c3ccccc32)cc(Cl)c1O
(B) CSc1cc(C(=O)N2CS(=O)(=O)c3ccccc32)cc(C#N)c1O
Sorting by inhibition at 10 µM in descending order, would A or B appear first? Kindly state the label of the option you pick.
B
(B: 57%, A: 25%)

---

# experiment_notes: Drug excretion rate in rat urine at 3 mg/kg, po measured up to 4 hrs by HPLC analysis
# Format: ADME, organism-based
# experimental_parameters: read-out: Drug excretion
observation_type: dose excreted at 4 h (%)

Take a look at these entries with their results.
>>> experimental_value("COc1cc(C(=O)N2CS(=O)(=O)c3ccccc32)cc(C(F)(F)F)c1O")
0
>>> experimental_value("N#Cc1cc(C(=O)N2CS(=O)(=O)c3ccccc32)cc(C2CC2)c1O")
0.6

(A) CSc1cc(C(=O)N2CS(=O)(=O)c3ccccc32)cc(C#N)c1O
(B) O=C(c1cc(Cl)c(O)c(C(F)(F)F)c1)N1CS(=O)(=O)c2ccccc21
(C) N#Cc1cc(C(=O)N2CCc3ccccc32)cc(I)c1O
(D) CSc1cc(C(=O)N2CS(=O)(=O)c3ccccc32)cc(Cl)c1O
Output the entries ranked by dose excreted at 4 h from maximum down to minimum. Answer by listing the labels in the order asked for.
A, D, B, C

---

# Tested on: mitochondrial respiration
# experiment_notes: Hepatotoxicity in rat liver mitochondria assessed as inhibition of mitochondrial respiration by measuring mitochondrial respiratory control ratio of oxygen consumption in presence of substrate and ADP to rate after complete conversion of ADP to ATP by Clark-type oxygen electrode method
# Format: toxicity
observation_type: IC50 (µM)
Give your result in µM as a bare value.

Take a look at these entries with their results.
>>> experimental_value("N#Cc1cc(C(=O)N2CCc3ccccc32)cc(Cl)c1O")
31
>>> experimental_value("N#Cc1cc(C(=O)N2CS(=O)(=O)c3ccccc32)cc(C2CC2)c1O")
59
>>> experimental_value("N#Cc1cc(C(=O)N2CCc3ccccc32)cc(I)c1O")
53
>>> experimental_value("CSc1cc(C(=O)N2CCc3ccccc32)cc(C#N)c1O")
40
>>> experimental_value("CC(C)c1cc(C(=O)N2CS(=O)(=O)c3ccccc32)cc(C#N)c1O")
12
>>> experimental_value("O=C(c1cc(Cl)c(O)c(Cl)c1)N1CS(=O)(=O)c2ccccc21 [DOTINURAD]")
27
>>> experimental_value("N#Cc1cc(C(=O)N2CSc3ccccc32)cc(C(F)(F)F)c1O")
55

With those in mind, consider the next compound.
I am curious: what IC50 value has been reported for Cc1c(C)n(C(=O)c2ccc(O)c(C#N)c2)c2ccccc12 ?
3.6
